All figures here come from paper PMC6213879.

- Tested on: MGC-803 human gastric cancer cell line
- assay notes: MTT cytotoxicity assay, MGC-803
- Format: cell-based
- condition: 48 h, mean ± SD from three independent experiments
measured attribute: pIC50
On this scale, pIC50 is minus log10 of a concentration expressed in M (mol/L).

Reported MGC-803 human gastric cancer cell line pIC50 for item N.N.[Cl][Pt][Cl] [cisplatin, reference compound] was 4.83

====

- System: MGC-803 human gastric cancer cell line
- assay notes: MTT cytotoxicity assay, MGC-803
- Format: cell-based
- condition: Homo sapiens, MGC-803, 48 h, mean ± SD from three independent experiments
pIC50: −log10 of the molar value.
Decision: pIC50 compared against 5; not below it gives y, below it gives n.

In plain terms: is recorded pIC50 at least 5 for CC(C)c1ccc2c(c1)CCC1[C@](C)(C(=O)OCC(O)CNc3ccccc3)CCC[C@]21C (stereo partly drawn) ? y

In plain terms: is recorded pIC50 at least 5 for CC(C)c1ccc2c(c1)CCC1[C@](C)(C(=O)OCC(O)CNc3ccc(Cl)cc3)CCC[C@]21C (stereo partly drawn) ? n

In plain terms: is recorded pIC50 at least 5 for COc1cccc(NCC(O)COC(=O)[C@]2(C)CCC[C@]3(C)c4ccc(C(C)C)cc4CCC23)c1 (stereo partly drawn) ? n

In plain terms: is recorded pIC50 at least 5 for CC(C)c1ccc2c(c1)CCC1[C@](C)(C(=O)OCC(O)CNc3ccc(F)cc3)CCC[C@]21C (stereo partly drawn) ? n
